Every entry's value here was drawn from the supplement of paper PMC9262897.

tested on: E. coli TESEC Mtb DapB; assay: growth (OD600 after 10 h); higher = more growth (less inhibition); conditions: arabinose induction (level): High; compound 0.1 mM; raw OD600 reference: median of DMSO wells […], cell-free background 0.041
Where a name gives a salt, the structure may show the parent alone.
Label yes when growth is at or above 0.2; anything below gets no.

Previously resolved entries follow.
(Q) Does growth meet or surpass 0.2 for CCN(CC)CCc1nc(-c2ccccc2)no1 [Oxalamine citrate salt] ?
(A) no

(Q) Does growth meet or surpass 0.2 for CC[C@H](C)[C@H]1O[C@]2(CC[C@@H]1C)C[C@@H]1C[C@@H](CC=C(C)C(O[C@H]3C[C@H](OC)[C@@H](O[C@H]4C[C@H](OC)[C@@H](O)[C@H](C)O4)[C@H](C)O3)[C@@H](C)C=CC=C3CO[C@@H]4[C@H](O)C(C)=C[C@@H](C(=O)O1)[C@]34O)O2 (some centres not stated) ?
(A) yes

Further cases:
(Q) Does growth meet or surpass 0.2 for COc1ccc2c(c1)N(C[C@H](C)CN(C)C)c1ccccc1S2 [Methotrimeprazine maleat salt] ?
(A) no

(Q) Does growth meet or surpass 0.2 for COC(=O)[C@H](c1ccccc1Cl)N1CCc2sccc2C1 ?
(A) no

(Q) Does growth meet or surpass 0.2 for COC(=O)C1=C(C)NC(C)=C(C(=O)OCCN(C)Cc2ccccc2)C1c1cccc([N+](=O)[O-])c1 (configuration not stated) [Nicardipine hydrochloride] ?
(A) no

(Q) Does growth meet or surpass 0.2 for O=C(CCCCCCC(=O)Nc1ccccc1)NO ?
(A) no
